Assay: Induction of apoptosis, Nicoletti staining, in HEK293-hL1 cells
Type: cell-based, human
Details: human; L1-expressing HEK293; C2-ceramide 40 μM or staurosporine 2 μM, 24 h, serum-free, Nicoletti staining; read-out: cells still viable after treatment
measured-attribute: viability at 24 h, 2 μM (%)
A number alone suffices; assume %.

Task: Note viability at 24 h, 2 μM for the molecule shown: "CN[C@@H]1C[C@H]2O[C@@](C)([C@@H]1OC)n1c3ccccc3c3c4c(c5c6ccccc6n2c5c31)C(=O)NC4"
Result: 77
